Molecular target: T1, human δ opioid receptor (human, UniProt P41143 1-372)
T1 construct: whole, on cells; Used as crude membrane preparations of the transfected cells; also called hDOR; DOR
T1 sequence (P41143 whole entry, stated change not applied): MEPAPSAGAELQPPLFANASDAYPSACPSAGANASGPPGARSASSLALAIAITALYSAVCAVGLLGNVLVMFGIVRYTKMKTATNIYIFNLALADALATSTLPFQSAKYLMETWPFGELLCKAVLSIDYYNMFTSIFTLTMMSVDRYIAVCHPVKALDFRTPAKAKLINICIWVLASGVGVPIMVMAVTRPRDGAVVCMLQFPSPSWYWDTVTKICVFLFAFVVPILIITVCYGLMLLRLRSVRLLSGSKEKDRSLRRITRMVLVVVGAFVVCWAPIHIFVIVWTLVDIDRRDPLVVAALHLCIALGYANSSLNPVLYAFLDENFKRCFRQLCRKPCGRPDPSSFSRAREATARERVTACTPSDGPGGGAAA
Assay: radioligand competition vs [3H]DPDPE, membranes of hDOR cells
Bridge positions count the residues as written; N and C are the ends. Square brackets hold non-standard residues; d marks the D form. Ends that are not written are not given here. * marks the point of attachment. NH(3,5-(CF3)2-benzyl) = FC(F)(F)c1cc(CN*)cc(C(F)(F)F)c1; OBn(OMe)2 = C-terminal OBn(OMe)2 ester; Nle = CCCC[C@H](N)C(=O)O
# label = 1 (yes) if Ki < 1 nM else 0 (no)

Dear reviewer, please state whether Y[dA]GFMPLW-OH [TyrDAlaGlyPheMetProLeuTrpOH (TY043)] has Ki strictly beneath 1 nM.
0 (no)

Dear reviewer, please state whether YAGFXPLW (D-Ala at 2; Nle (norleucine) at 5 (X); C-terminal O-3,5-Bn(CF3)2 ester) [TyrDAlaGlyPheNleProLeuTrpOBn(CF3)2 (TY018)] has Ki strictly beneath 1 nM.
0 (no)

Dear reviewer, please state whether YXGFXPLW (D-Pen (D-penicillamine) at 2 (X); Pen (L-penicillamine) at 5 (X); disulfide 2-5 (cyclic); C-terminal NH-Bn(CF3)2 amide) [Tyr[DPenGlyPhePen]ProLeuTrpNHBn(CF3)2 (TY046)] has Ki strictly beneath 1 nM.
0 (no)

Dear reviewer, please state whether Y[dA]GFMPLW-{OBn(OMe)2} [TyrDAlaGlyPheMetProLeuTrpOBn(OMe)2 (TY030)] has Ki strictly beneath 1 nM.
1 (yes)

New cases:
Dear reviewer, please state whether Y[dC]GF[Nle]PCW-{NH(3,5-(CF3)2-benzyl)} (disulfide 2-7, also called [D-Cys2, Cys7]TY027) [Tyr[DCysGlyPheNleProCys]TrpNHBn(CF3)2 (TY035)] has Ki strictly beneath 1 nM.
0 (no)
